System: RAW-Dual (murine macrophage reporter line)
Assay: NF-kB reporter (SEAP) activity fold change vs agonist alone; higher = enhanced NF-kB activity
Settings: modulator concentration 10 µM; agonist: CpG ODN 1826 0.5 ug/mL
Provide the recorded NF-kB reporter for the entries that follow.
One number for each entry.

Guide cases for NF-kB reporter, answers given:
Molecule	Target	NF-kB reporter
CCOC(=O)Nc1nc(C)c(C(C)=O)s1	RAW-Dual (murine macrophage reporter line)	0.763
Cn1c(=O)[nH]c2nnc(-c3cccnc3)nc2c1=O	RAW-Dual (murine macrophage reporter line)	1.09
COC(=O)C1=CN(CC2CCCO2)C=C(C(=O)OC)C1c1cccc(Cl)c1 (stereo unspecified)	RAW-Dual (murine macrophage reporter line)	0.59
COc1ccc(OC)c(Nc2nc(-c3c(C)nc4sccn34)cs2)c1	RAW-Dual (murine macrophage reporter line)	0.853
O=c1ncnc2[nH][nH]cc1-2	RAW-Dual (murine macrophage reporter line)	0.832

Each molecule below has a reported value. Please supply its NF-kB reporter.
1. Cc1ncn(CC(=O)N2CC(Oc3cccc(C(F)(F)F)n3)C2)c(=O)c1C
2. Cc1c(C(=O)OC(C)C)sc(NC(=O)C(C)(C)C)c1C(=O)OC(C)C
3. C=CCn1c(=N)n(CC(O)c2ccco2)c2ccccc21.Cl (stereo unspecified)
4. O=C(NCC(O)(c1ccccc1)C(F)(F)F)c1ccc(Br)o1 (stereo unspecified)
5. COc1cc(OC)c(C(=O)CCCN2CCCC2)c(OC)c1.Cl
6. Cc1ccc(C(=O)N2N=C(c3ccncc3)CC2(O)C(F)(F)F)cc1 (stereo unspecified)

1. 0.986
2. 0.823
3. 1.15
4. 0.943
5. 0.98
6. 0.764

====

Test system: RAW-Dual (murine macrophage reporter line)
Experiment: NF-kB reporter (SEAP) activity fold change vs agonist alone; higher = enhanced NF-kB activity
Details: modulator concentration 10 µM; agonist: CpG ODN 1826 0.5 ug/mL
Class label 1: NF-kB reporter at least 1. Class label 0: NF-kB reporter below 1.

Example results:
Compound	Qualitative label
Cl.O[C@@H](CNC[C@H](O)[C@H]1CCc2cc(F)ccc2O1)[C@@H]1CCc2cc(F)ccc2O1	label 0
Cc1ccc(C2C=C(c3ccccc3)Nc3ncnn32)cc1 (stereo not drawn)	label 0
CC(C)(C)C(=O)Oc1ccc(S(=O)(=O)Nc2ccccc2C(=O)NCC(=O)O)cc1	label 0

Textbook exercise: given the entry CC(C)Oc1cccc(C(=O)NC(=S)N2CCN(c3ccc([N+](=O)[O-])cc3)CC2)c1 , state whether its NF-kB reporter is greater than or equal to 1. label 0

Textbook exercise: given the entry Cc1cc(Cl)ccc1OCCCC(=O)NO , state whether its NF-kB reporter is greater than or equal to 1. label 0

Textbook exercise: given the entry CC(C=CC1=C(C)CCCC1(C)C)=CC=CC(C)=CC(=O)O , state whether its NF-kB reporter is greater than or equal to 1. label 1

Textbook exercise: given the entry C[C@H](NC(=O)C(=O)Nc1ccccc1C(C)(C)C)C(=O)N[C@@H](CC(=O)O)C(=O)COc1c(F)c(F)cc(F)c1F , state whether its NF-kB reporter is greater than or equal to 1. label 1

Textbook exercise: given the entry Cl.Nc1ccn([C@@H]2O[C@H](CO)[C@@H](O)[C@@H]2O)c(=O)n1 , state whether its NF-kB reporter is greater than or equal to 1. label 1

Textbook exercise: given the entry Cl.OC(CC#CCN1CCCC1)(c1ccccc1)c1ccccc1 , state whether its NF-kB reporter is greater than or equal to 1. label 0

Textbook exercise: given the entry COc1ccc(CNCc2cccc3ccccc23)c(OC)c1 , state whether its NF-kB reporter is greater than or equal to 1. label 0

Textbook exercise: given the entry O=C(NN=Cc1ccc(O)c(O)c1)c1cc2ccccc2cc1O , state whether its NF-kB reporter is greater than or equal to 1. label 0

Textbook exercise: given the entry O=C1c2ccccc2C(=O)c2c1ccc(O)c2O , state whether its NF-kB reporter is greater than or equal to 1. label 1

Textbook exercise: given the entry O=C(O)CCCCC1CCSS1 (stereo not drawn) , state whether its NF-kB reporter is greater than or equal to 1. label 0

Textbook exercise: given the entry C#Cc1cccc(Nc2ncnc3cc(OCCOC)c(OCCOC)cc23)c1 , state whether its NF-kB reporter is greater than or equal to 1. label 0

Textbook exercise: given the entry COc1ccnc(CS(=O)c2nc3ccc(OC(F)F)cc3[nH]2)c1OC (stereo not drawn) , state whether its NF-kB reporter is greater than or equal to 1. label 1

Textbook exercise: given the entry CCN(CC)c1ccc(C=NNC(=O)c2ccncc2)c(O)c1 , state whether its NF-kB reporter is greater than or equal to 1. label 1

Textbook exercise: given the entry Cc1cc(=O)[nH]c(=S)[nH]1 , state whether its NF-kB reporter is greater than or equal to 1. label 1

Textbook exercise: given the entry CCCc1nc2c(C)cc(-c3nc4ccccc4n3C)cc2n1Cc1ccc(-c2ccccc2C(=O)O)cc1 , state whether its NF-kB reporter is greater than or equal to 1. label 1

Textbook exercise: given the entry Ic1cccc(Cn2nnc(-c3ccccc3)n2)c1 , state whether its NF-kB reporter is greater than or equal to 1. label 0

Textbook exercise: given the entry Cl.OC(CCN1CCCC1)(c1ccccc1)C1CCCCC1 (stereo not drawn) , state whether its NF-kB reporter is greater than or equal to 1. label 0

Textbook exercise: given the entry O=C(CCC1CCCC1)Nc1cccc(Cl)c1 , state whether its NF-kB reporter is greater than or equal to 1. label 0
